Target: T1, Human CD137 ECD (human)
T1 construct: entry includes C-terminal His-tag and biotin acceptor peptide; also called human CD137 extracellular domain; 4-1BB
T1 sequence (chain, as listed by the source limits assumed): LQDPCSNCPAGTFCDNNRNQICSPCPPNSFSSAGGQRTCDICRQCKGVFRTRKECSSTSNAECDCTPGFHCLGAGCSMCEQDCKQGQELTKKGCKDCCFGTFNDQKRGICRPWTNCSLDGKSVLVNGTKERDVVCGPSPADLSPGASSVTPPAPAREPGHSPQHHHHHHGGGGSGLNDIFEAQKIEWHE
Assay: Biacore SPR, vs parent H183/L072
measure_name: fold change of affinity (fold)
Output spec: scalar in fold, unitless text.

Study these solved cases before continuing.
>>> measured("H183/L072 VL F55W (antibody, name in Kabat numbering, V domains shown, Dual-Ig) VH: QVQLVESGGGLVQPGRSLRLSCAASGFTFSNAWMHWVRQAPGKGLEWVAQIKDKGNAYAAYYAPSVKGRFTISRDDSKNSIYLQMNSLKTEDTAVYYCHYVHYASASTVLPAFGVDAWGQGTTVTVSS VL: DIVMTQSPLSLPVTPGEPASISCQASQELVHMNRNTYLHWYQQKPGQAPRLLIYKVSNRWPGVPDRFSGSGSGTDFTLKISRVEAEDVGVYYCAQGTSVPFTFGQGTKLEIK")
0.2
>>> measured("H183/L072 VL R54D (antibody, name in Kabat numbering, V domains shown, Dual-Ig) VH: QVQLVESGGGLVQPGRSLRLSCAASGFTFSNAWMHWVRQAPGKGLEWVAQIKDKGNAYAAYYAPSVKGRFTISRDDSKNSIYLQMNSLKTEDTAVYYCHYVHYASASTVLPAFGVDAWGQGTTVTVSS VL: DIVMTQSPLSLPVTPGEPASISCQASQELVHMNRNTYLHWYQQKPGQAPRLLIYKVSNDFPGVPDRFSGSGSGTDFTLKISRVEAEDVGVYYCAQGTSVPFTFGQGTKLEIK")
0.3
>>> measured("H183/L072 VL M27eA (antibody, name in Kabat numbering, V domains shown, Dual-Ig) VH: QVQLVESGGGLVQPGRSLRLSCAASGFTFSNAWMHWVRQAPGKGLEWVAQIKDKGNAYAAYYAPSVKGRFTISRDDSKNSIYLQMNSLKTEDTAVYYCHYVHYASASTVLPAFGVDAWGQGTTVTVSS VL: DIVMTQSPLSLPVTPGEPASISCQASQELVHANRNTYLHWYQQKPGQAPRLLIYKVSNRFPGVPDRFSGSGSGTDFTLKISRVEAEDVGVYYCAQGTSVPFTFGQGTKLEIK")
1
>>> measured("H183/L072 VL Q90A (antibody, name in Kabat numbering, V domains shown, Dual-Ig) VH: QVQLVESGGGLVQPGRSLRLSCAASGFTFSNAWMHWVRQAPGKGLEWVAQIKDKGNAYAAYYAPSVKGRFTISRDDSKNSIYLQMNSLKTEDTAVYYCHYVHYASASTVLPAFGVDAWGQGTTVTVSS VL: DIVMTQSPLSLPVTPGEPASISCQASQELVHMNRNTYLHWYQQKPGQAPRLLIYKVSNRFPGVPDRFSGSGSGTDFTLKISRVEAEDVGVYYCAAGTSVPFTFGQGTKLEIK")
0

Now look at this one.
Looking for the measured fold change of affinity of H183/L072 VL F96T (antibody, name in Kabat numbering, V domains shown, Dual-Ig) VH: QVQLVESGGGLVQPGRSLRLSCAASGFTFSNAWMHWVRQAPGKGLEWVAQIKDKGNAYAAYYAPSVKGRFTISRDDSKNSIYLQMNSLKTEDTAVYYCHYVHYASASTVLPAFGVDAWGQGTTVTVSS VL: DIVMTQSPLSLPVTPGEPASISCQASQELVHMNRNTYLHWYQQKPGQAPRLLIYKVSNRFPGVPDRFSGSGSGTDFTLKISRVEAEDVGVYYCAQGTSVPTTFGQGTKLEIK , can you help?
0
